test: BBB permeation by parallel artificial membrane permeability assay (PAMPA); assay type: in vitro ADME; details: PAMPA-BBB; read-out: Experimental Pe
ASSAY ENDPOINT: Papp (nm/s)
Give bare numbers, in nm/s.

CSc1ccc(C(=O)/C=C/c2ccc([N+](=O)[O-])cc2)cc1: 155
CCn1cc(C(=O)O)c(=O)c2cc(F)c(N3CCNC(C)C3)c(F)c21 (stereo not drawn) [Lomefloxacin, reference compound]: 12.2
CSc1ccc(C(=O)/C=C/c2ccccc2)cc1: 155
CSc1ccc(C(=O)/C=C/c2ccc(F)cc2)cc1: 152
CSc1ccc(C(=O)/C=C/c2ccc(O)cc2)cc1: 133

Now, please, on to the next molecule.
The reported value for `CSc1ccc(C(=O)/C=C/c2ccc(Cl)cc2)cc1` in terms of Papp is 163

----------
target: MAO-B (Homo sapiens); assay: MAO-B enzyme inhibition (benzylamine substrate, 250 nm); conditions: ratio of MAO-B IC50 values
Sequence (P27338 whole entry): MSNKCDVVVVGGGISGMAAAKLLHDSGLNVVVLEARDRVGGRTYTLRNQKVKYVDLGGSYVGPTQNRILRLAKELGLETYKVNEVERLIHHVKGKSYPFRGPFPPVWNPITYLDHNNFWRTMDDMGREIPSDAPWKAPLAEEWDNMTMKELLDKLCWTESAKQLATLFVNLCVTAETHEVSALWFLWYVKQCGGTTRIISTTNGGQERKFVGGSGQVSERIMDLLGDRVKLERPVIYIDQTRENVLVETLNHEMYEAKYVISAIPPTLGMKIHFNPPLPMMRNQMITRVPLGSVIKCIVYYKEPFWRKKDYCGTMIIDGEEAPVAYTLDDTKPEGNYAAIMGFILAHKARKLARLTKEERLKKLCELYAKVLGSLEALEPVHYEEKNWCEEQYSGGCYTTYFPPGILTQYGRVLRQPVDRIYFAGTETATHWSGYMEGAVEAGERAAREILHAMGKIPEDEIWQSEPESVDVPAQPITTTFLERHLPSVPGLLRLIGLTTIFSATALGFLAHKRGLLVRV
ASSAY ENDPOINT: Times more potent than the reference drug lazabemide (MAO-B) (times)
Answers are plain numbers, in times.

Example results:
CSc1ccc(C(=O)/C=C/c2ccc(F)cc2)cc1 [TM10]: 2.4
CSc1ccc(C(=O)/C=C/c2ccccc2)cc1 [TM1]: 3.7
CSc1ccc(C(=O)/C=C/c2ccc([N+](=O)[O-])cc2)cc1 [TM7]: 2.7

Parameter requested: Times more potent than the reference drug lazabemide (MAO-B). Apply to each item below.
1. CSc1ccc(C(=O)/C=C/c2ccc(C)cc2)cc1 [TM4]
2. CSc1ccc(C(=O)/C=C/c2ccc(Cl)cc2)cc1 [TM8]
3. CSc1ccc(C(=O)/C=C/c2ccc(O)cc2)cc1 [TM2]

RESULT:
[1.1, 6.3, 3.0]

----------
molecular target: recombinant human MAO-A (Homo sapiens); experiment: MAO-A enzyme inhibition (kynuramine substrate, 316 nm); conditions: read-out: Residual Activity at 10 µM (%) MAO-A
Sequence (P21397 whole entry): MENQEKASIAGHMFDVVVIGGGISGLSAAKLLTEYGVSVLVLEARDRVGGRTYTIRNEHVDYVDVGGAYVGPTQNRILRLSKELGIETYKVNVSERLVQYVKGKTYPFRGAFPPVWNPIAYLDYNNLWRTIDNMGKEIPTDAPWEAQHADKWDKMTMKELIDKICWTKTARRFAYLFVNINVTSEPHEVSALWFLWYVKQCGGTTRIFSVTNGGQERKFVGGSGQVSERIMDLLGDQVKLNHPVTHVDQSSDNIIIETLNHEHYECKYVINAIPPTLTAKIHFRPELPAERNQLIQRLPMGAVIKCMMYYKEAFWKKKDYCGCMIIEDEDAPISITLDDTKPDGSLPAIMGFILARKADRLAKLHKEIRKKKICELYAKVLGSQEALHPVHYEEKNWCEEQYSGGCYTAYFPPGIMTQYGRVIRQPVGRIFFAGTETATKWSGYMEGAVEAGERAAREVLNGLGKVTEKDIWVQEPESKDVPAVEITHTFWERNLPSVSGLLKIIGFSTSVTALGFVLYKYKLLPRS
Please provide measured remaining activity at 10 µM for the entries that follow.
Numbers only, in %.

CSc1ccc(C(=O)/C=C/c2ccccc2)cc1: 62.6

Parameter requested: remaining activity at 10 µM. Apply to each item below.
1. CSc1ccc(C(=O)/C=C/c2ccc(C)cc2)cc1
2. CSc1ccc(C(=O)/C=C/c2ccc(O)cc2)cc1
3. CSc1ccc(C(=O)/C=C/c2ccc(Cl)cc2)cc1

RESULT:
[71.6, 48.3, 77.4]
